# STUDY_TARGET: recombinant TFPI of the FXa restoring assay (human, mouse or rat; not specified for Tables 9 and 10)
# Sequence (P10646 29-304): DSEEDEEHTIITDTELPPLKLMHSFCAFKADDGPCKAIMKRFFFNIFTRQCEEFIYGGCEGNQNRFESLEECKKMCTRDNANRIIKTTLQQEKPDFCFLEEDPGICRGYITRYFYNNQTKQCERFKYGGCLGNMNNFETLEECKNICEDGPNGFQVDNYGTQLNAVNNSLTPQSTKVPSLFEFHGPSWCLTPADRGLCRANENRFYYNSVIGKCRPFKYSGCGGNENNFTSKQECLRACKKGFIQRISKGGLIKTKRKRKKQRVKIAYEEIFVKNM
# EXPERIMENT_DESCRIPTION: cell-based or functional assay
Listed here: items and their measured IC50, FXa restoring assay.

BINDER	UNIT_DESCRIPTOR	IC50, FXa restoring assay
2A8 LC_Y48F (Fab, V domains shown, also called 2A8-14) VH: QVQLVESGGGLVQPGGSLRLSCAASGFTFRSYGMSWVRQAPGKGLEWVSSIRGSSSSTYYADSVKGRFTISRDNSKNTLYLQMNSLRAEDTAVYYCARKYRYWFDYWGQGTLVTVSS VL: DIELTQPPSVSVAPGQTARISCSGDNLRNYYAHWYQQKPGQAPVVVIFYDNNRPSGIPERFSGSNSGNTATLTISGTQAEDEADYYCQSWDDGVPVFGGGTKLTVLG	µg/mL	0.34
2A8 LC_D91W (Fab, V domains shown, also called 2A8-17) VH: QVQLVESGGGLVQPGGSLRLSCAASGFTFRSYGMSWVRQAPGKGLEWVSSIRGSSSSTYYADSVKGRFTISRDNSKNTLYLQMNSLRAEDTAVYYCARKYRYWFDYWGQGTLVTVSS VL: DIELTQPPSVSVAPGQTARISCSGDNLRNYYAHWYQQKPGQAPVVVIYYDNNRPSGIPERFSGSNSGNTATLTISGTQAEDEADYYCQSWWDGVPVFGGGTKLTVLG	µg/mL	0.23
4B7 wild-type Fab (Fab, V domains shown, Fab with HA (or c-myc) and 6xHis tag at the C-terminus of the heavy chain; also called 4B7wt; parental 4B7) VH: QVQLQQSGPGLVKPSQTLSLTCAISGDSVSSNSAAWSWIRQSPGRGLEWLGIIYKRSKWYNDYAVSVKSRITINPDTSKNQFSLQLNSVTPEDTAVYYCARWHSDKHWGFDYWGQGTLVTVSS VL: DIVMTQSPLSLPVTPGEPASISCRSSQSLVFSDGNTYLNWYLQKPGQSPQLLIYKGSNRASGVPDRFSGSGSGTDFTLKISRVEAEDVGVYYCQQYDSYPLTFGQGTKVEIKR	µg/mL	1.46
